- PROTOCOL_SUMMARY: in vivo
- MEASUREMENT_SETUP: mouse, mice, oral dosing
PROPERTY: LD50 (mg/kg)
Answer in mg/kg, number only, no unit symbol.

Record CCCn1cnc2c1c(=O)n(CCCCC(C)=O)c(=O)n2C . Reported LD50: 900
